molecular target: PSMA (Homo sapiens); construct: expressed in transfected cells; host or cells: PC3-PIP cells (washed membrane preparation after freeze/thaw); experiment: Competitive binding assay: NAAG hydrolysis by PC3-PIP membranes, Amplex Red glutamic acid readout; format: biochemical; conditions: PC3-PIP membranes; FIG. 2 and FIG. 3
Sequence (Q04609 whole entry): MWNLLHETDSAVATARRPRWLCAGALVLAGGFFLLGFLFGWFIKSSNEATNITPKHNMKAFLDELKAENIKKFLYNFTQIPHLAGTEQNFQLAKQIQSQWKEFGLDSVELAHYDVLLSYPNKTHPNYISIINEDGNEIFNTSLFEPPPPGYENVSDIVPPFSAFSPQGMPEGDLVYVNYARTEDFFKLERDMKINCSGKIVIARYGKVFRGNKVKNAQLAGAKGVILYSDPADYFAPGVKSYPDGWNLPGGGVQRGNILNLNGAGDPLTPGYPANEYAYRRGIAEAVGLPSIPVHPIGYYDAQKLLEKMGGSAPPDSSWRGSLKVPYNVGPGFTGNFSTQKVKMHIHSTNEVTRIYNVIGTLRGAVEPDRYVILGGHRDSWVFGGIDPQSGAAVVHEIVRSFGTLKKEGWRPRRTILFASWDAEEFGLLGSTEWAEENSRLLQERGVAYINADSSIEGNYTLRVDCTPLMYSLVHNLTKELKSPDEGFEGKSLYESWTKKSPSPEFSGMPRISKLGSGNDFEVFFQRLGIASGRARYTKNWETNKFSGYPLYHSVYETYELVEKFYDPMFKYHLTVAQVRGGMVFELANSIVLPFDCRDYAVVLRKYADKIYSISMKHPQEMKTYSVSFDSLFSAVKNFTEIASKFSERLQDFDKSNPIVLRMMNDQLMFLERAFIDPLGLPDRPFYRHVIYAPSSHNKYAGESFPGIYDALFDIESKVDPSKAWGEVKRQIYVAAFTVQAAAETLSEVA

# COMPOUND, EC50 / pM
measured = [
    ("O=C(O)CCC(NC(=O)NC(CCCCNC(=O)CCC(NC(=O)CCC(NC(=O)C(Cc1ccc(O)cc1)NC(=O)CN1CCN(CC(=O)O)CCN(CC(=O)O)CCN(CC(=O)O)CC1)C(=O)O)C(=O)O)C(=O)O)C(=O)O (centres unmarked)", 390),
]

meta.source: patent US12569577B2
